molecular target: isolated recombinant JAK2 kinase domain (Homo sapiens (Human)); assay: JAK2 enzyme assay (Caliper LabChip, peptide phosphorylation); settings: 25 μM ATP
pKi: −log10 of the molar value.
experimentalReadout: pKi

INSERT INTO assay_data (compound, experimentalreadout, quantitativeresult) VALUES
  ('O=C1CCC(CN2CCN(C(=O)Cn3cc(NC(=O)c4cnn5cccnc45)c(-c4cc(Cl)ccc4OC(F)F)n3)CC2)O1 (centres unmarked)', 'pKi', 9.12),
  ('COCCNCCn1cc(NC(=O)c2cnn3cccnc23)c(-c2cc(Cl)ccc2OC(F)F)n1', 'pKi', 9.24),
  ('CN1C[C@@H]2CN(C(=O)Cn3cc(NC(=O)c4cnn5cccnc45)c(-c4cc(Cl)ccc4OC(F)F)n3)C[C@@H]2C1', 'pKi', 9.09),
  ('CN1CCN(C(=O)Cn2cc(NC(=O)c3cnn4cccnc34)c(-c3cc(Cl)ccc3OC(F)F)n2)CC1(C)C', 'pKi', 8.80),
  ('N#CC1(CN2C[C@@H]3CN(C(=O)Cn4cc(NC(=O)c5cnn6cccnc56)c(-c5cc(Cl)ccc5OC(F)F)n4)C[C@@H]3C2)CCCCC1', 'pKi', 9.27),
  ('N#CCCCN1CCN(C(=O)Cn2cc(NC(=O)c3cnn4cccnc34)c(-c3cc(Cl)ccc3OC(F)F)n2)CC1', 'pKi', 9.08),
  ('O=C(Nc1cn(CC(=O)N2CCC(O)CC2)nc1-c1cc(Cl)ccc1OC(F)F)c1cnn2cccnc12', 'pKi', 9.20),
  ('CN1CCCC2CN(C(=O)Cn3cc(NC(=O)c4cnn5cccnc45)c(-c4cc(Cl)ccc4OC(F)F)n3)CC21 (centres unmarked)', 'pKi', 9.27);

* * *

target: isolated recombinant JAK2 kinase domain (Homo sapiens (Human), UniProt O60674); assay: JAK2 enzyme assay (Caliper LabChip, peptide phosphorylation); conditions: 25 μM ATP
Sequence (O60674 849-1124): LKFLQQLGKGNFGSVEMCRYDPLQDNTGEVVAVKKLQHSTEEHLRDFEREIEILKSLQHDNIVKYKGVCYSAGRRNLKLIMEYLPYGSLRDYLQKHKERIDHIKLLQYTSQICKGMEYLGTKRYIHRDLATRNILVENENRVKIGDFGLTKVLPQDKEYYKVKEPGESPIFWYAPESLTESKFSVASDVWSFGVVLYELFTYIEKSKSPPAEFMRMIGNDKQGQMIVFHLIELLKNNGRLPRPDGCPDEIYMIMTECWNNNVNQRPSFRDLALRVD
pKi: −log10 of the molar value.
Quick list: pKi per entry.
experimentalReadout: pKi

INSERT INTO assay_data (chemicalsmiles, quantitativeresult) VALUES
  ('O=C(Nc1cn(CC(=O)N2CCN(c3ccccc3)CC2)nc1-c1cc(Cl)ccc1OC(F)F)c1cnn2cccnc12', 9.13),
  ('CN(C)CCOC1CCN(C(=O)Cn2cc(NC(=O)c3cnn4cccnc34)c(-c3cc(Cl)ccc3OC(F)F)n2)CC1', 8.77),
  ('CN1CCC2(CCN(C(=O)Cn3cc(NC(=O)c4cnn5cccnc45)c(-c4cc(Cl)ccc4OC(F)F)n3)CC2)C1', 8.83),
  ('O=C(Nc1cn(CC(=O)N2C[C@H]3CN(CC4CCN(C(=O)C5CCOCC5)CC4)C[C@H]3C2)nc1-c1cc(Cl)ccc1OC(F)F)c1cnn2cccnc12', 9.14);

* * *

Form field: log10(EC50) (one value per entry).
tested on: JAK1-dependent STAT6 phosphorylation downstream of IL-13 stimulation in TF-1 human erythroleukemia cells; assay: JAK1 pathway assay in TF-1 cells (IL-13-pSTAT6, MSD); assay type: cell-based; settings: Homo sapiens, TF-1, TF-1 cells, read-out: IL13-pSTAT6 EC50_TF-1
experimentalReadout: log10(EC50) (log10 of the value in µM)

INSERT INTO measurements (chemicalsmiles, experimentalreadout, quantitativeresult) VALUES
  ('CCN(Cc1ccnc(C)c1)C(=O)Cn1cc(NC(=O)c2cnn3cccnc23)c(-c2cc(Cl)ccc2OC(F)F)n1', 'log10(EC50)', -2.39),
  ('O=C(Nc1cn(CC(=O)N2C[C@H]3CN(CCCOC(=O)N4CCOCC4)C[C@H]3C2)nc1-c1cc(Cl)ccc1OC(F)F)c1cnn2cccnc12', 'log10(EC50)', -1.11),
  ('CNC(=O)CCN1CCC(n2cc(NC(=O)c3cnn4cccnc34)c(-c3cc(Cl)ccc3OC(F)F)n2)CC1', 'log10(EC50)', -1.71),
  ('O=C(Nc1cn(CC(=O)N2CCC(NCCc3ccc(Cl)cc3)CC2)nc1-c1cc(Cl)ccc1OC(F)F)c1cnn2cccnc12', 'log10(EC50)', -1.25),
  ('CN1CCN(c2nc(-c3cc(Cl)ccc3OC(F)F)c(NC(=O)c3cnn4cccnc34)s2)CC1', 'log10(EC50)', -2.36),
  ('CN(Cc1ccc(Br)cc1)C1CCN(C(=O)Cn2cc(NC(=O)c3cnn4cccnc34)c(-c3cc(Cl)ccc3OC(F)F)n2)CC1', 'log10(EC50)', -1.68),
  ('CN1CC[C@H]2CN(C(=O)Cn3cc(NC(=O)c4cnn5cccnc45)c(-c4cc(Cl)ccc4OC(F)F)n3)C[C@H]2C1', 'log10(EC50)', -1.96),
  ('Nc1nn2cccnc2c1C(=O)Nc1cn(C2CCN(CCCC(=O)NCc3ccccc3)CC2)nc1-c1cc(Cl)ccc1OC(F)F', 'log10(EC50)', -1.71),
  ('CCN(Cc1ccnc(Cl)c1)C(=O)Cn1cc(NC(=O)c2cnn3cccnc23)c(-c2cc(Cl)ccc2OC(F)F)n1', 'log10(EC50)', -2.40),
  ('CN(Cc1ccc(C(C)(C)C)cc1)C1CCN(C(=O)Cn2cc(NC(=O)c3cnn4cccnc34)c(-c3cc(Cl)ccc3OC(F)F)n2)CC1', 'log10(EC50)', -0.93),
  ('CN1CC[C@@H]2CN(C(=O)Cn3cc(NC(=O)c4cnn5cccnc45)c(-c4cc(Cl)ccc4OC(F)F)n3)CC[C@@H]21', 'log10(EC50)', -2.10),
  ('CN1CCN(C(=O)Cn2cc(NC(=O)c3cnn4cccnc34)c(-c3cc(Cl)ccc3OC(F)F)n2)C[C@H]1CO', 'log10(EC50)', -1.67),
  ('CS(=O)(=O)CCCN1CCC(n2cc(NC(=O)c3c(N)nn4cccnc34)c(-c3cc(Cl)ccc3OC(F)F)n2)CC1', 'log10(EC50)', -1.82),
  ('O=C(CCCN1CCC(n2cc(NC(=O)c3cnn4cccnc34)c(-c3cc(Cl)ccc3OC(F)F)n2)CC1)NC1COC1', 'log10(EC50)', -1.44),
  ('CN1CC[C@@H]2CN(C(=O)Cn3cc(NC(=O)c4cnn5cccnc45)c(-c4cc(Cl)ccc4OC(F)F)n3)C[C@@H]2C1', 'log10(EC50)', -1.95),
  ('CN(Cc1ccc(F)c(Br)c1)C1CCN(C(=O)Cn2cc(NC(=O)c3cnn4cccnc34)c(-c3cc(Cl)ccc3OC(F)F)n2)CC1', 'log10(EC50)', -1.63),
  ('O=C(Nc1cn(CC(=O)N2CCC(N(CCc3ccccc3)CC(F)(F)F)CC2)nc1-c1cc(Cl)ccc1OC(F)F)c1cnn2cccnc12', 'log10(EC50)', -0.58),
  ('O=C(Nc1sc(N2CCN(CC3CC3)CC2)nc1-c1cc(Cl)ccc1OC(F)F)c1cnn2cccnc12', 'log10(EC50)', -1.63),
  ('CN(CC(C)(F)F)C1CCN(C(=O)Cn2cc(NC(=O)c3cnn4cccnc34)c(-c3cc(Cl)ccc3OC(F)F)n2)CC1', 'log10(EC50)', -2.64),
  ('Nc1nn2cccnc2c1C(=O)Nc1cn(C2CCNCC2)nc1-c1cc(Cl)ccc1OC(F)F', 'log10(EC50)', -2.28);

* * *

# pKi annotations
target: isolated recombinant JAK1 kinase domain (Homo sapiens (Human)); experiment: JAK1 enzyme assay (Caliper LabChip, peptide phosphorylation); type: biochemical; details: isolated recombinant JAK1 kinase domain, 25 μM ATP
pKi: −log10 of the molar value. Where a name gives a salt, the structure may show the parent alone.
experimentalReadout: pKi

INSERT INTO measurements (molecule, quantitativeresult) VALUES
  ('CS(=O)(=O)CCN1CCN(C(=O)Cn2cc(NC(=O)c3cnn4cccnc34)c(-c3cc(Cl)ccc3OC(F)F)n2)CC1', 9.13),
  ('O=C(Nc1cn(CC(=O)N2C[C@H]3CN(CC4CCC4)C[C@H]3C2)nc1-c1cc(Cl)ccc1OC(F)F)c1cnn2cccnc12', 9.19),
  ('CC(=O)N1CCC(N2CCC(n3cc(NC(=O)c4c(N)nn5cccnc45)c(-c4cc(Cl)ccc4OC(F)F)n3)CC2)CC1', 9.27),
  ('CC(C)(C)OC(=O)N1CC[C@H](O)[C@@H](n2cc(NC(=O)c3cnn4cccnc34)c(-c3cc(Cl)ccc3OC(F)F)n2)C1 (single isomer, unassigned)', 8.91),
  ('Nc1nn2cccnc2c1C(=O)Nc1cn(CC(=O)N2CCC(N3CC[C@H](O)C3)CC2)nc1-c1cc(Cl)ccc1OC(F)F', 9.22),
  ('O=C(Nc1cn(C2CCNCC2)nc1-c1cc(Cl)ccc1OC(F)F)c1cnn2cccnc12 [Example 1, hydrochloride]', 8.79),
  ('CC(C)N1C[C@H]2CN(C(=O)Cn3cc(NC(=O)c4cnn5cccnc45)c(-c4cc(Cl)ccc4OC(F)F)n3)C[C@H]2C1', 8.89);

* * *

Below, each entry is listed with its recorded Ki.
molecular target: isolated recombinant JAK1 kinase domain (Homo sapiens (Human), UniProt P23458); assay: JAK1 enzyme assay (Caliper LabChip, peptide phosphorylation); assay type: biochemical; details: isolated recombinant JAK1 kinase domain, 25 μM ATP
Sequence (P23458 875-1153): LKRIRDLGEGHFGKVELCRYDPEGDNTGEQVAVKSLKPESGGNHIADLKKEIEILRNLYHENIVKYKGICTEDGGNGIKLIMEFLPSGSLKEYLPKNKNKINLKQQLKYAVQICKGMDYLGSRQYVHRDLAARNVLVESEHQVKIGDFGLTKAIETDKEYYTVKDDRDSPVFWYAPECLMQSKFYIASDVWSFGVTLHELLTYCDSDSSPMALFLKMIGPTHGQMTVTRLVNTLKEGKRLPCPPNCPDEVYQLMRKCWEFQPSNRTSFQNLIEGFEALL
Structures can show the parent of a compound that is named as a salt.
experimentalReadout: Ki (nM)

INSERT INTO assay_data (compound, systemtested, quantitativeresult) VALUES
  ('CC(C)CN1C[C@@H]2CN(C(=O)Cn3cc(NC(=O)c4cnn5cccnc45)c(-c4cc(Cl)ccc4OC(F)F)n3)C[C@@H]2C1', 'isolated recombinant JAK1 kinase domain (Homo sapiens (Human), UniProt P23458)', 0.82),
  ('CN1CC[C@@H]2[C@H](CCN2C(=O)Cn2cc(NC(=O)c3cnn4cccnc34)c(-c3cc(Cl)ccc3OC(F)F)n2)C1', 'isolated recombinant JAK1 kinase domain (Homo sapiens (Human), UniProt P23458)', 0.23),
  ('N#Cc1ccc(N2CCN(C(=O)Cn3cc(NC(=O)c4cnn5cccnc45)c(-c4cc(Cl)ccc4OC(F)F)n3)CC2)cc1', 'isolated recombinant JAK1 kinase domain (Homo sapiens (Human), UniProt P23458)', 0.32),
  ('NC[C@@H]1CCCN1C(=O)Cn1cc(NC(=O)c2cnn3cccnc23)c(-c2cc(Cl)ccc2OC(F)F)n1', 'isolated recombinant JAK1 kinase domain (Homo sapiens (Human), UniProt P23458)', 5.35),
  ('CN1CC[C@@H]2CN(C(=O)Cn3cc(NC(=O)c4cnn5cccnc45)c(-c4cc(Cl)ccc4OC(F)F)n3)CC[C@@H]21', 'isolated recombinant JAK1 kinase domain (Homo sapiens (Human), UniProt P23458)', 0.91),
  ('CC(=O)NCCCN1CCC(n2cc(NC(=O)c3cnn4cccnc34)c(-c3cc(Cl)ccc3OC(F)F)n2)CC1 [Example 142, hydrochloride]', 'isolated recombinant JAK1 kinase domain (Homo sapiens (Human), UniProt P23458)', 1.65),
  ('CN1CCN(CCCN2CCC(n3cc(NC(=O)c4cnn5cccnc45)c(-c4cc(Cl)ccc4OC(F)F)n3)CC2)C1=O', 'isolated recombinant JAK1 kinase domain (Homo sapiens (Human), UniProt P23458)', 1.42),
  ('CN(C1CCN(C(=O)Cn2cc(NC(=O)c3cnn4cccnc34)c(-c3cc(Cl)ccc3OC(F)F)n2)CC1)C1(C#N)CC1', 'isolated recombinant JAK1 kinase domain (Homo sapiens (Human), UniProt P23458)', 0.29),
  ('CN(C)C1CN(C(=O)Cn2cc(NC(=O)c3c(N)nn4cccnc34)c(-c3cc(Cl)ccc3OC(F)F)n2)C1', 'isolated recombinant JAK1 kinase domain (Homo sapiens (Human), UniProt P23458)', 0.52),
  ('CSCCOC(=O)CNCCn1cc(NC(=O)c2cnn3cccnc23)c(-c2cc(Cl)ccc2OC(F)F)n1', 'isolated recombinant JAK1 kinase domain (Homo sapiens (Human), UniProt P23458)', 3.29),
  ('CC(C)(C)OC(=O)N1CC[C@@H](n2cc(NC(=O)c3cnn4cccnc34)c(-c3cc(Cl)ccc3OC(F)F)n2)[C@H](O)C1 (single isomer, unassigned)', 'isolated recombinant JAK1 kinase domain (Homo sapiens (Human), UniProt P23458)', 0.72),
  ('N#CC1(CNC2CCN(C(=O)Cn3cc(NC(=O)c4cnn5cccnc45)c(-c4cc(Cl)ccc4OC(F)F)n3)CC2)CC1', 'isolated recombinant JAK1 kinase domain (Homo sapiens (Human), UniProt P23458)', 0.36),
  ('CN(C)CC1(c2ccccc2)CCN(C(=O)Cn2cc(NC(=O)c3cnn4cccnc34)c(-c3cc(Cl)ccc3OC(F)F)n2)CC1', 'isolated recombinant JAK1 kinase domain (Homo sapiens (Human), UniProt P23458)', 0.43);
